- Protocol Notes: Human HepG2 cell viability assay in 384 well format
- Type: toxicity, cell-based
- Design: dose 125 nL, time 70.5 hour; concentration not given beside the values
- Assay Setup: HepG2 cells, read-out: Inhibition
Rule: cytotoxicity at 70.5 h below -10% gives True. Equal to or above -10% gives False.

Completed entries (count: 5):
molecule="CCc1nccn1C1CCCN(C(=O)c2ccc(-n3ccnc3)cc2)C1 (stereo unspecified)" qualitative_label=True
molecule=NS(=O)(=O)c1cccnc1NCc1ccco1 qualitative_label=False
molecule=COCCn1nc(C(=O)N(C)Cc2ccc3ccccc3c2)ccc1=O qualitative_label=False
molecule=COCc1noc(CCC(=O)c2ccc3c(c2)OCCO3)n1 qualitative_label=True
molecule="CN1CCN(Cc2c[nH]cn2)CC12CCC(=O)N(CC1CC1)CC2 (stereo unspecified)" qualitative_label=False

Read the next record carefully.
### Prompt Consider the molecule CCN(Cc1ccncc1)C(=O)C(C)n1ccnc1C(C)C (stereo unspecified) . Is its cytotoxicity at 70.5 h strictly less than -10%?
### Response True

* * *

- Protocol Notes: Human HepG2 cell viability assay in 384 well format
- Format: toxicity, cell-based
- Parameters: dose 125 nL, time 70.5 hour; concentration not given beside the values
- Assay Setup: HepG2 cells, read-out: Inhibition
Below: a set of entries, each annotated with reported cytotoxicity at 70.5 h.
In your response, put the unit directly after the numeric value.

Example results:
compound="Cc1c[nH]nc1C1CCCCN1C(=O)Cn1cc(Cl)cn1 (stereo unspecified)" reported_result=-15.8%
compound=CCOc1cncc(N2CCN(c3ccccc3F)CC2)n1 reported_result=6.24%
compound="CC(C(=O)N1CCN(c2ncccn2)CC1)n1cncn1 (stereo unspecified)" reported_result=-9.39%

### Prompt Reported cytotoxicity at 70.5 h for Cc1nocc1C(=O)N1CCc2c(CN(C)C)nn(C)c2C1 : what is it?
### Response -13.6%

### Prompt What cytotoxicity at 70.5 h value was documented for this compound, O=C(NC[C@H]1CCCC[C@H]1O)c1ccc2nc(-c3ccco3)[nH]c2c1 ?
### Response -1.94%

### Prompt Given Cc1ccc(OC2(C(=O)O)CCN(C/C=C/c3ccco3)CC2)cn1 , state its recorded cytotoxicity at 70.5 h.
### Response -5.05%

* * *

- Protocol Notes: Human HepG2 cell viability assay in 384 well format
- Type: toxicity, cell-based
- Design: dose 125 nL, time 70.5 hour; concentration not given beside the values
- Assay Setup: HepG2 cells, read-out: Inhibition
Recorded cytotoxicity at 70.5 h by entry
Record the value in %, omitting the unit from your answer.

molecule=Cc1nsc(NC(=O)N2CCc3sccc3C2)n1 units_label=% reported_result=-7.28

### Prompt # get_value(readout='cytotoxicity at 70.5 h', item= CCc1cnc(CN2CCC(N(C)Cc3noc(C4CC4)n3)C2)o1 (stereo unspecified) )
### Response 23.8

### Prompt Quick check: cytotoxicity at 70.5 h of c1ccc(-c2nc(CN3CCCC3Cn3cncn3)co2)cc1 (stereo unspecified) ?
### Response -7.46

* * *

- Protocol Notes: Human HepG2 cell viability assay in 384 well format
- Type: toxicity, cell-based
- Parameters: dose 125 nL, time 70.5 hour; concentration not given beside the values
- Assay Setup: HepG2 cells, read-out: Inhibition
Measured cytotoxicity at 70.5 h of individual entries
Use % as the unit, but write only the number.

// below: answered molecules
molecule="O=C(c1ccc(S(=O)(=O)N2CCNCC2)cc1)N1CCCC(O)C1 (stereo unspecified)" assay_endpoint="cytotoxicity at 70.5 h" units_label=% reported_result=-16.1
molecule="Cc1nn(C)c(Cl)c1CN1CCN(c2nccs2)C(C)C1 (stereo unspecified)" assay_endpoint="cytotoxicity at 70.5 h" units_label=% reported_result=2.61
molecule="Cc1ncc(C(=O)OCC2CCN(c3ccccc3)C2)s1 (stereo unspecified)" assay_endpoint="cytotoxicity at 70.5 h" units_label=% reported_result=-126
molecule="Cc1cnc(C(=O)N2CCC3(CC2)CC(c2ccccc2)C(=O)N3)cn1 (stereo unspecified)" assay_endpoint="cytotoxicity at 70.5 h" units_label=% reported_result=8.04

### Prompt Fill blank: measured cytotoxicity at 70.5 h of the molecule Cc1cccc(-c2ccc(C(=O)NCC3CCCOC3)c(=O)[nH]2)c1 (stereo unspecified) is ____.
### Response -9.36

### Prompt Looking for the measured cytotoxicity at 70.5 h of CCOC(=O)CC1CCCCN1C(=O)CCc1cc(Cl)no1 (stereo unspecified) , can you help?
### Response -1.88

* * *

Listed here are compounds together with their documented cytotoxicity at 70.5 h.
- Protocol Notes: Human HepG2 cell viability assay in 384 well format
- Format: toxicity, cell-based
- Set-up: dose 125 nL, time 70.5 hour; concentration not given beside the values
- Assay Setup: HepG2 cells, read-out: Inhibition
Report as a plain number; the unit % is understood.

Solved entries (count: 5):
compound=Cc1cccc(-c2noc([C@@H]3C[C@@H](O)CN3CC3CCCCC3)n2)c1 assay_endpoint="cytotoxicity at 70.5 h" reported_result=-1.98
compound="O=C(NCC1CCN(Cc2cc3ccccc3[nH]2)C1)C1CCCCC1 (stereo not drawn)" assay_endpoint="cytotoxicity at 70.5 h" reported_result=-19.6
compound=Cc1cc(C)cc(NCCC(=O)NC2CCCCC2)c1 assay_endpoint="cytotoxicity at 70.5 h" reported_result=1.57
compound="CCc1cc(C(=O)N2CCCC2c2nc(O)cc(CC)n2)on1 (stereo not drawn)" assay_endpoint="cytotoxicity at 70.5 h" reported_result=-1.1
compound="Cc1ccc(C)c(OCC(O)Cn2ncc3cnn(C)c(=O)c32)c1 (stereo not drawn)" assay_endpoint="cytotoxicity at 70.5 h" reported_result=6.69

### Prompt Requested field: cytotoxicity at 70.5 h. Item: O=C(c1ccsc1)N1CCc2onc(CN3CCOCC3)c2C1
### Response -4.87

### Prompt State the recorded cytotoxicity at 70.5 h for this entry: Cc1nc2ccnn2c(C)c1CCC(=O)N1CCN(CCO)CC1
### Response -9.84

### Prompt Endpoint output: cytotoxicity at 70.5 h of O=C(CCc1ccco1)N1CCCN(Cc2cscn2)CC1 . Value?
### Response 11.4

* * *

Each record here notes measured cytotoxicity at 70.5 h.
- Protocol Notes: Human HepG2 cell viability assay in 384 well format
- Format: toxicity, cell-based
- Parameters: dose 125 nL, time 70.5 hour; concentration not given beside the values
- Assay Setup: HepG2 cells, read-out: Inhibition
Numbers only here, please. The scale is %.

Reference set (3 entries):
compound=Cc1cccc2c1nc(COCC(=O)O)n2-c1cnc(N)cn1 reported_result=-4.53
compound=Cc1cc(N2CCC(NC(=O)CCc3cnn(C)c3)CC2)nc(C)n1 reported_result=-4.77
compound="COc1ccccc1CNC(C)c1ccc2[nH]c(=O)[nH]c2c1 (stereo unspecified)" reported_result=1.17

### Prompt Quick one: cytotoxicity at 70.5 h of COCCN(CCOC)C(=O)Nc1cc(C(F)(F)F)c[nH]c1=O ?
### Response -15.1

### Prompt Could you share which cytotoxicity at 70.5 h value was measured for Cc1nc(N2CCCC2)nc2c1CCN(Cc1ccsc1)CC2 ?
### Response 6.56

### Prompt Which cytotoxicity at 70.5 h value is on record for CCCc1nnc(N2CCC3(CCC(=O)N(C)C3)CC2)o1 ?
### Response 4.55

### Prompt # input compound: c1ccc(CN2C[C@@H]3OCCN(c4cccnc4)[C@@H]3C2)nc1 ; wanted: its cytotoxicity at 70.5 h
### Response -12.2

### Prompt If you can, please state the reported cytotoxicity at 70.5 h value of COc1cccc(CN2CCN(c3ccc4nncn4n3)C(C)C2)c1 (stereo unspecified) .
### Response 9.6

### Prompt Form field: reported cytotoxicity at 70.5 h of Cc1cccc(-c2nc(C)nn2CC(=O)NC(C)C2CC2)c1 (stereo unspecified)
### Response -5.76

### Prompt Data request, read-out cytotoxicity at 70.5 h, for Cc1noc(C)c1CCC(=O)N[C@@H]1CC[C@@H](Oc2cccnc2)[C@@H]1O
### Response -3.66

### Prompt Consider the compound shown here: Cc1ccc(C)c2c(O)cc(CN3CCNC(=O)C3C)nc12 (stereo unspecified) What is its recorded cytotoxicity at 70.5 h?
### Response -8.28

* * *

- Protocol Notes: Human HepG2 cell viability assay in 384 well format
- Type: toxicity, cell-based
- Design: dose 125 nL, time 70.5 hour; concentration not given beside the values
- Assay Setup: HepG2 cells, read-out: Inhibition
Collected cytotoxicity at 70.5 h values appear next to each entry.
Kindly provide the numeric value in % only, without the unit symbol.

Some compounds with known cytotoxicity at 70.5 h results, for comparison:
compound="c1cnc(N2CCCC(NCc3cccc4c3OCCO4)C2)nc1 (centres undefined)" reported_result=3.71
compound="Cc1oncc1C(=O)N1CCC2(C1)CN(c1cccnc1)C(=O)CN2C (centres undefined)" reported_result=-0.201
compound="CCC(SC)C(=O)N1CCC(n2ccnn2)CC1 (centres undefined)" reported_result=-7.09
compound=Cc1ccc(CN2CC[C@H]3[C@H](CO[C@H]3CN(C)C)C2)o1 reported_result=-11.7
compound=Cn1nc(CN2CCCN(C3CCCC3)CC2)c2c(Cl)cccc21 reported_result=-6.04
compound=COCCN(C)c1ccc(NCc2ccsc2)nc1 reported_result=-10.2

### Prompt Name the recorded cytotoxicity at 70.5 h for C=C(C)Cn1ccc2cc(OC)c(F)cc2c1=O .
### Response -2.43

### Prompt Which cytotoxicity at 70.5 h is listed for CC(C)CCN1C2(CCN(c3ncccn3)C2)c2ccccc2S1(=O)=O (centres undefined) ?
### Response -11.6
